target: Phosphodiesterase 4 (Homo sapiens, UniProt P27815+Q08499+Q07343+Q08493); experiment: Inhibition of PDE4 isolated from human U937 cells assessed as […] by LANCE assay; format: cell-free; conditions: u-937
observed_property: IC50 (nM)
Give bare numbers, in nM.

The examples below pair each entry with its known result.
| line_notation | unit_abbrev | IC50 |
| --- | --- | --- |
| CS(=O)(=O)Nc1ccc(OCC2CC2)c(C(=O)O[C@@H](Cc2c(Cl)c[n+]([O-])cc2Cl)c2ccc(OC(F)F)c(OCC3CC3)c2)c1 | nM | 0.4 |
| CNS(=O)(=O)c1cc(C(=O)O[C@@H](Cc2c(Cl)c[n+]([O-])cc2Cl)c2ccc(OC(F)F)c(OCC3CC3)c2)ccc1OC | nM | 0.03 |
| COc1ccc(C(=O)O[C@@H](Cc2c(Cl)c[n+]([O-])cc2Cl)c2ccc(OC(F)F)c(OCC3CC3)c2)cc1OCC1CC1 | nM | 0.05 |

Now look at this entry.
# value lookup — system Phosphodiesterase 4 (Homo sapiens, UniProt P27815+Q08499+Q07343+Q08493), readout IC50, item O=C(O[C@@H](Cc1c(Cl)c[n+]([O-])cc1Cl)c1ccc(OC(F)F)c(OCC2CC2)c1)c1ccc(C(F)(F)F)cc1
0.2
